- Tested on: VchCAST RNA-guided transposition machinery (E. coli BL21(DE3) host, lacZ target)
- experiment.description: relative integration efficiency (T-LR orientation) vs wild-type transposon end (log2 (normalized fold change)); transposon end mutated: left end; higher = more efficient transposition
Returns met if the recorded relative integration efficiency (log2) is greater than or equal to -4, and not met otherwise.

[
  {
    "chain.sequence": "AATGTTGTTGATGCAACCATAAAGTGATATTTAATAATTATTTATAATCAGCAACTTAACCACAAAACAACCATATATTGATATCTCACAAAACAACCATACTGGTCGCGGGGGTGTCCGATCTGATTTCAGCAAAACTACTGCAGTAAGAA",
    "label": "met"
  },
  {
    "chain.sequence": "AATGTTGTTGATGCAACCATAAAGTGATATTTAATAATTATTTATAATCAGCAACTTACAACCATATATTGATATCTCACAAAACAACCATAAGTTGATATTTTACCACAAAATGTGAATCGAGTATTTCAGCAAAACTACTGCAGTAAGAA",
    "label": "met"
  },
  {
    "chain.sequence": "AATGTTGTTGATGCAACCATAAAGTGATATTTACAACCATATATTGATATCTCACAAACAACCATAAGTTGATATTTTTGTGAATCGAGTATTTCAGCAAAACTACTGCAGTAAGAAAGTTACTTCGTGGTATGGGAGGATCAAGGAGCCAA",
    "label": "met"
  },
  {
    "chain.sequence": "AATGTTGTTGATGCAACCAGCCCTGTCGCGGGCCGCCGGCGGGCGCCGACTACCAGGCCAACACCCCACCAACGCGCGGTCGCGAGACACCCCACCAACGCCTGGTCGCGGGGGTGTCCGATCTGATTTCAGCAAAACTACTGCAGTAAGAA",
    "label": "not met"
  },
  {
    "chain.sequence": "AATGTTGTTGATGCAACCATAAAGTGATATTTAATAATTATTTATAATCAACCATATATTGATATCTCACAAAACAACCATAAGTTGATATTTTTGTGAATCGAGTATTTCAGCAAAACTACTGCAGTAAGAAAGTTACTTCGTGGTATGGG",
    "label": "not met"
  }
]

stdin: Would you say AATGTTGTTGATGCAACCATAAAGTGATATTTAATAATTATTTATAATCAGCAACTTAACCACAACCACCAACGCGCGGTCGCGAGACACCCCACCAACGCCTGGTCGCGGGGGTGTCCGATCTGATTTCAGCAAAACTACTGCAGTAAGAA shows relative integration efficiency (log2) at minimum -4?
stdout: not met

stdin: Would you say AATGTTGTTGATGCAACCATAAGTTGATATTTTATAATTATTTATAATCAGCAACTTAACCACAAAACAACCATAAAATGATAATTAACAAAAGTTGGTATTCAACTATAAAATGTGAATCGAGTATTTCAGCAAAACTACTGCAGTAAGAA shows relative integration efficiency (log2) at minimum -4?
stdout: met

stdin: Would you say AATGTTGTTGATGCAACCATAAAGTGATATTTCCGCCGGCGGGCGCCGACTACCAGGCCAACACCCCACCAACGCGCGGTCGCGAGACACCCCACCAACGCCTGGTCGCGGGGGTGTCCGATCTGATTTCAGCAAAACTACTGCAGTAAGAA shows relative integration efficiency (log2) at minimum -4?
stdout: not met

stdin: Would you say AATGTTGTTGATGCAACCATAAAGTGATATTTAATAATTATTTATAATCAGCAACTTAACCACAAAACAACCATAAAATGATAATTAACAAAAGTTGGTATTCAACTATAAAATGTGAATCGAGTATTTCAGCAAAACTACTGCAGTAAGAA shows relative integration efficiency (log2) at minimum -4?
stdout: met

----------
- System: VchCAST RNA-guided transposition machinery (E. coli BL21(DE3) host, lacZ target)
- experiment.description: relative integration efficiency (T-RL orientation) vs wild-type transposon end (log2 (normalized fold change)); transposon end mutated: right end (5 bp flank + 75 bp right end); higher = more efficient transposition
// class assignment uses relative integration efficiency (log2) with these ranges: low interval = under -5, middle interval = from -5 up to -0.3, high interval = -0.3 and over

Study these solved cases before continuing.
[
  {
    "chain.sequence": "ACATTTGTTGATACAACCAGCCCCGTCGCCGGCACAAACGCCCGGTCGCCGGCGACACAAACGCCCGGTCGCGGTAAGAGGATCATAGTCAGACCAACATTGCTACGACCCGTATTCGCACCGACAC",
    "label": "low interval"
  },
  {
    "chain.sequence": "ACATTTGTTGACAACCATAAAATGATAATTACACCCATAAATTGATAATTATCACACCCATAAATTGATATTGCCTCTGATCATAGTCAGACCAACATTGCTACGACCCGTATTCGCACCGACACTG",
    "label": "low interval"
  },
  {
    "chain.sequence": "ACATTTGTTGATACAACCATAAAATGATAATTACACCCATAAATTGATAATTATCACACCCATAAATTGATATTGCCGATGATCATAGTCAGACCAACATTGCTACGACCCGTATTCGCACCGACAC",
    "label": "high interval"
  }
]

stdin: Quick check: band for ACATTTGTTGATACAACCATAAAATGATAATTACACCCATAAATTGATAATTATCACACCCATAAATTGATATTGCCTCTGATCATAGTCCAACCATAAAATGATAATTAAGACCAAGCACCGACAC
stdout: middle interval

stdin: Quick check: band for ACATTTGTTCATACAACCCTAAAATGATAATTACACCCATAAATTCATAATTATCACCCCCAATTTAACTATAACGCTCTGATCATAGTCAGACCAACATTGCTACGACCCGTATTCGCACCGACAC
stdout: low interval

stdin: Quick check: band for ACATTAGTTCATACAACCATAAAATGATAATTACACCCATAAATTCATAATTATCACACCCAATTTAACTATAACGCTCTGATCATAGTCAGACCAACATTGCTACGACCCGTATTCGCACCGACAC
stdout: low interval

stdin: Quick check: band for ACATTTGTTCATCCAACCATAAAATGATAATTACACCCATAAATTGATAATTATCACACCCAATTTAACTATAACGCTCTGATCATAGTCAGACCAACATTGCTACGACCCGTATTCGCACCGACAC
stdout: middle interval

stdin: Quick check: band for ACATTTGTTGATACAACCATAAAATGATAATTACAACCATAAAATGATAATTATCACACCCATAAATTGATAATTACTCTGATCATAGTCAGACCAACATTGCTACGACCCGTATTCGCACCGACAC
stdout: high interval

stdin: Quick check: band for ACATTTGTTCATACAACCCTAAAATGATAATTACACCCATAAATGGATAATTATCACACCCAATTTAACTATAACGCTCTGATCATAGTCAGACCAACATTGCTACGACCCGTATTCGCACCGACAC
stdout: middle interval

stdin: Quick check: band for ACATTTGTTGATACAACCATAAAATGATAATTACACCCATAAATTGATAATTATCACACCCATAAATTGATATTGCCTCTGATCATAGTCAGACCCAACCATAAAATGATAATTAAAGCACCGACAC
stdout: high interval

----------
I'd appreciate it if you could supply relative integration efficiency (log2) values for the items below.
- System: VchCAST RNA-guided transposition machinery (E. coli BL21(DE3) host, lacZ target)
- experiment.description: relative integration efficiency (T-LR orientation) vs wild-type transposon end (log2 (normalized fold change)); transposon end mutated: left end; higher = more efficient transposition
Numbers only.

Solved entries:
[
  {
    "chain.sequence": "AATGTTGTTGATGCAACCATAAAATGATAATTAATAATTATTTATAATCAGCAACTTAACCACAAAACAACCATAAAATGATAATTATTTTGTCAACCATAAAATGATAATTATGTGAATCGAGTATTTCAGCAAAACTACTGCAGTAAGAA",
    "relative integration efficiency (log2)": -1.36
  },
  {
    "chain.sequence": "AATGTTGTTGATGCAACCATAAAGTGATATTTACGCACTCCGTAGCCATCTGGGGCACCGGACGCTCCAACCATATATTGATATCTCACAAAACAACCATAAGTTGATATTTTTGTGAATCGAGTATTTCAGCAAAACTACTGCAGTAAGAA",
    "relative integration efficiency (log2)": -3.42
  },
  {
    "chain.sequence": "AATGTTGTTGATGCAACCATAAAGTGATATTTAATAATTATTTATAATCAGCAACTTAACCACAAACAACCATATATTGATATCTCACAAAACAACCATAAGTTGATATTTTTGTGAATCGAGTATTTCAGCAAAACTACTGCAGTAAGAAA",
    "relative integration efficiency (log2)": -0.356
  }
]

Okay, now this sequence:
stdin: Output reported relative integration efficiency (log2) of the sequence AATGTTGTTGATGCAACCATAAAGTGATATTTAATAATTATTTATAATCAGCAACTTAACCACAAAACAACCATATATTGATACAAAACAACCATAAGTTGATATTTTTGTGAATCGAGTATTTCAGCAAAACTACTGCAGTAAGAAAGTTA on VchCAST RNA-guided transposition machinery (E. coli BL21(DE3) host, lacZ target).
stdout: -2.08
